Test system: M14 melanoma
Assay: NCI tumour cell line growth inhibition, 48 h; in the data active means GI50 below about 0.43 µM; inactive means the rest
Give one outcome, nothing more. List: active, inactive

1. [Cl-].[Nd+3].[O-]/N=C(\c1ccccc1)c1ccccn1.[O-]/N=C(\c1ccccc1)c1ccccn1.[O-]/N=C(\c1ccccc1)c1ccccn1 ... inactive
2. OCc1ccc(N(Cc2ccc(F)cc2)CC2CC2)cc1Cl ... inactive
3. CC1(C)CC[C@]2(C(N)=O)CC[C@]3(C)C(=CC[C@@H]4[C@@]5(C)C/C(=C/c6cccnc6)C(=O)C(C)(C)[C@@H]5CC[C@]43C)[C@@H]2C1 ... inactive

What classification did Cc1nn(CCO)c(C)c1N=[N+]([O-])c1c(C)nn(CCO)c1C end up with in this test?
inactive

What classification did CC(=N\O)/C(C)=N/O.CC(=N\O)/C(C)=N/O.CC(=N\O)/C(C)=N/O.CC(=N\O)/C(C)=N/O.[CH3-].[CH3-].[Co].[Co] end up with in this test?
inactive

What classification did COc1ccc(N2CCN(C(=O)c3ccc(C(F)(F)F)nc3Nc3cc(Cl)ccc3C)CC2)cc1 end up with in this test?
inactive

What classification did C[CH2][Pb]([CH2]C)([CH2]C)[O]C(=O)COc1ccccc1 end up with in this test?
inactive

What classification did O=C1N[C@@H]2[C@@H](O)[C@@H](O)[C@H](O)C[C@H]2c2cc3c(c(O)c21)OCO3 end up with in this test?
active

###

As shown below, each of these molecules has a reported TGI value.
System: TK-10 renal
Assay: NCI tumour cell line growth inhibition, 48 h
Expressed in µM, but write only the number.

Example entries begin here.
1. O=C1N[C@@H]2[C@@H](O)[C@@H](O)[C@H](O)C[C@H]2c2cc3c(c(O)c21)OCO3 ... 1.73
2. COc1cc(/C=C2\N=C(c3ccccc3)N(c3nc4ccc(Sc5ccccc5)cc4[nH]3)C2=O)ccc1O ... 53.5
3. Cc1cc(Oc2ccccc2)ccc1Nc1ncnc2ccc(-c3cnc(Cl)c(NS(C)(=O)=O)c3)cc12 ... 20.8

Below: the item to evaluate.
Request: TGI, test system TK-10 renal, entry OCc1ccc(N(Cc2ccc(F)cc2)CC2CC2)cc1Cl
0.398

###

Test system: PC-3 prostate
Test: NCI tumour cell line growth inhibition, 48 h
Observation Type: TGI

Example entries begin here.
1) CCOC(=O)c1c(SCc2ccccc2)nc2c3ccccc3ccn12 ... > 100 µM
2) O=S(=O)(Nc1ccc(Cl)cc1)c1ccc(-c2cnc(C3CC3)o2)cc1 ... 15.5 µM
3) COc1ccc2c(ccc3c(C(=O)NCCN(C)CCNC(=O)c4cn(C)c5c4ccc4cc(OC)ccc45)cn(C)c32)c1 ... 2.84 µM
4) C=C1C(=O)OC2/C=C(/CO)C3(O)CC(O)C(C)(CC(OC(=O)/C(C)=C/C)C12)O3 (centres undefined) ... 83.9 µM
5) CC(=O)OC1Oc2ccccc2-c2oc(=O)c(-c3ccc(F)cc3)cc21 (centres undefined) ... > 100 µM

Reported TGI, compound O=C(CCCCN1CCOCC1)Nc1ccc(Cn2nnc3c2C(=O)c2nnn(Cc4ccc(NC(=O)CCCCN5CCOCC5)cc4)c2C3=O)cc1 : ____
2.57 µM

Reported TGI, compound CC(=O)OC1CCC2(C)C(CCC3C4CC=C(C5(C)OCCO5)C4(C)CCC32)C1 (centres undefined) : ____
54.2 µM

Reported TGI, compound CCOP(=O)(/C=C/n1ccc(N)nc1=O)OCC : ____
> 100 µM

Reported TGI, compound COc1cc2c(cc1OCc1ccccc1)N=CC1C[C@@H](O)CN1C2=O (some centres undefined) : ____
> 100 µM

###

System: SK-MEL-5 melanoma
Assay: NCI tumour cell line growth inhibition, 48 h
As shown below, each of these compounds has a reported TGI value.

1. Cc1cc(Oc2ccccc2)ccc1Nc1ncnc2ccc(-c3cnc(Cl)c(NS(C)(=O)=O)c3)cc12 ... 3 µM
2. CCOC(=O)/C(=C\NCc1ccc2c(c1)OCO2)c1nc2ccccc2[nH]1 ... > 100 µM
3. C[CH2][Pb]([CH2]C)([CH2]C)[O]C(=O)COc1ccccc1 ... 2.56 µM

Below: the item to evaluate.
Request: TGI, test system SK-MEL-5 melanoma, entry C=CCc1cccc2cc(C(N)=O)c(=N)oc12
> 100 µM

###

Tested on: HCT-15 colon
Test: NCI tumour cell line growth inhibition, 48 h; in the data active = GI50 below about 0.43 µM; inactive = the rest
Give one outcome, nothing more. List: active, inactive

Worked cases, answers included:
1) COc1cc(-c2csc(NC(=O)Nc3ccc(Cl)c(C(F)(F)F)c3)n2)cc(OC)c1OC ... inactive
2) O=c1cc(NCC(O)CN2CCOCC2)n(Cc2ccccc2)c(=O)n1Cc1ccccc1 (configuration not stated) ... inactive
3) O=C(Nc1cccc(Cl)c1)Nc1nccs1 ... inactive
4) Cc1cc(Nc2ccc3c(c2)OCO3)c2cc3c(cc2n1)OCO3 ... inactive
5) C[CH2][Pb]([CH2]C)([CH2]C)[O]C(=O)COc1ccccc1 ... inactive

What classification did O=[N+]([O-])c1ccc2c(c1)C(=NO)c1cc([N+](=O)[O-])ccc1-2 end up with in this test?
inactive

What classification did COc1ccc2nc3ccccc3c(NCc3ccc(Cl)cc3)c2c1 end up with in this test?
inactive

What classification did Cc1nc2cc(Nc3nc(N4CCCCC4)nc(N4CCOCC4)n3)ccc2n1Cc1ccccc1 end up with in this test?
inactive

What classification did COc1ccc2c(c1)NC(=O)CN2c1nc(NC2CC2)nc2ccccc12 end up with in this test?
active

What classification did C=C1C(=O)O[C@H]2[C@H]1CC/C(COC(=O)/C=C\C(=O)NCc1ccc(Cn3c(=O)sn(CCCI)c3=O)cc1)=C\CC[C@@]1(C)O[C@@H]21 end up with in this test?
active

What classification did CCCN(CCC)c1ccc(CO)c(Cl)c1 end up with in this test?
inactive

What classification did O=C(Nc1ccc([As]=[As]c2ccc(NC(=O)c3ccccc3)cc2)cc1)c1ccccc1 (configuration not stated) end up with in this test?
active

###

As shown below, each of these molecules has a reported GI50 value.
System: T-47D breast
Assay: NCI tumour cell line growth inhibition, 48 h

Example entries begin here.
1) ClCCn1cnc2c(SCc3ccccc3Cl)ncnc21 ... 13.7 µM
2) Cc1cc(C2CC(O)C(CO)O2)c(Cl)cc1Cl (stereo unspecified) ... > 100 µM
3) CC(O)CCc1ccc(Oc2c3ccccc3nc3occc23)cc1 (stereo unspecified) ... 1.28 µM
4) CC(=O)OC1Oc2ccccc2-c2oc(=O)c(-c3ccc(F)cc3)cc21 (stereo unspecified) ... 22.5 µM
5) COc1ccc2c(c1)[n+]([O-])c(C#N)c(NC(=O)c1cccs1)[n+]2[O-] ... > 100 µM

Below: the item to evaluate.
Reported GI50, molecule Cc1ccc(Cl)cc1-c1nc(N)nc(Nc2ccc(Br)cc2)n1 : ____
22.6 µM

###

Test system: SK-MEL-5 melanoma
Assay: NCI tumour cell line growth inhibition, 48 h
As shown below, each of these molecules has a reported TGI value.

1. N#CC1(Cc2ccccc2[N+](=O)[O-])c2ccccc2C2C(N1C(=O)c1ccccc1)C2(Cl)Cl (stereo not given) ... > 100 µM
2. CC(C)OC(=O)c1cc(NS(=O)(=O)c2ccc3ccccc3c2)cc(C(=O)OC(C)C)c1 ... 31.8 µM
3. CC12OC3(C)OC(=O)C(c4ccccc4)(O1)C3(C)O2 (stereo not given) ... > 100 µM
4. CN(C)CCCNCc1ccc(-c2ccc(F)c(Cl)c2)o1 ... 13.9 µM
5. COc1cccc(N=Cc2cc(OC)c(OC)c(OC)c2)c1 ... > 100 µM
6. C[C@]12CCC(=O)CC1CC[C@@H]1C2CC[C@@]2(C)C1CC[C@@H]2OC(=O)CC[Se][Se]CCC(=O)O[C@H]1CCC2[C@@H]3CCC4CC(=O)CC[C@]4(C)C3CC[C@@]21C (stereo not given in full) ... 3.35 µM
7. S=C1N=C2C(=N1)n1c3c(c4ccccc41)CCCC23 (stereo not given) ... > 100 µM
8. Nn1c2c(c3ccccc3c1=O)C(=O)c1ccccc1-2 ... > 50 µM

Request: TGI, test system SK-MEL-5 melanoma, entry CCc1cccc(C)c1NC(=O)CC(=O)NNC(N)=S
> 100 µM

Request: TGI, test system SK-MEL-5 melanoma, entry CCCc1[nH]nc(C(N)=O)c1N=NN(C)C
> 100 µM

###

System: SF-295 CNS
Test: NCI tumour cell line growth inhibition, 48 h
Observation Type: TGI

Example entries begin here.
1) COC(=O)C1Cc2c([nH]c3ccccc23)C(c2ccccc2O)N1 (stereo unspecified) ... > 100 µM
2) Cc1cc(O)c(/C=N/c2nc(-c3ccc([N+](=O)[O-])cc3)cs2)c(=O)o1 ... > 100 µM
3) O=Cc1cn(Cc2ccc(Cl)cc2)c2ccccc12 ... 34.9 µM
4) O=C(OCCOC(=O)c1ccc2c(c1)C1(SCCS1)c1ccccc1-2)c1ccc2c(c1)C1(SCCS1)c1ccccc1-2 ... > 100 µM
5) CCOC(=O)c1ccc(NC(=O)O/N=C(/Cl)CC)cc1 ... 36.4 µM

Reported TGI, compound O=c1[nH]c2[nH]c(-c3ccc(Br)cc3)cc2c2ccccc12 : ____
> 100 µM

Reported TGI, compound Oc1ccc(-c2nc(=S)[nH][nH]2)cc1 : ____
> 100 µM

Reported TGI, compound CC(C)C[C@H](NC(=O)Cn1ccc(Nc2ccccc2)cc1=O)B(O)O : ____
40.1 µM

Reported TGI, compound OCCCNCc1ccncc1 : ____
> 100 µM

Reported TGI, compound CN/N=C(\C)c1c(O)cc(C)oc1=O : ____
> 100 µM

Reported TGI, compound c1ccc2c3ccn4ccc5c6ccccc6[nH]c5c4c-3nc2c1 : ____
3 µM

Sourced from PubChem BioAssay (NCI)
